system.name: T1, hu-sCD47-6His; extracellular domain of human CD47 antigen with 6His-tag (human)
T1 construct: also called hCD47-his; soluble hCD47
experiment.description: SPR Biacore T200, antibody captured, hCD47-his analyte;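 note: antibodies captured on anti-IgG (Fc) CM5 chip, five sequential 10 min antigen injections at rising concentrations, reference flow cell and antigen-free cycle as controls, 1:1 model fit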
Form field: kon (one value per entry).
outcome.measure: kon

- binder: "Candidate 22 (VL008-AL13-8G5-8K3), mouse IgG (antibody, V domains shown, Recombinant mouse IgG2a or mIgG1 format, by assay; also called antibody 22) VH: QVQLQQPGAELVKPGASVKLSCKASGYTFTTYWMHWVKQRPGQGLEWIGMIHPNSGTTNYNEKFKSKATLTVDKSSSSTYMQLSSLTSEDSAVYYCTRSHYYDGHFSYWGQGTLVTVSA VL: DIVMSQSPSSLAVSAGEKVTMSCKSSQSLLNSRTRKNYLAWYQQKPGQSPKLLIYWASTRESGVPDRFTGSGSGTDFTLTISSVQAEDLAVYYCKQSYNLWTFGGGTRLEIK"
  outcome.measure: "kon"
  reported.result: "20700 M⁻¹ s⁻¹"
- binder: "Candidate 7 (VT008-AL5-10G7-10K7), mouse IgG (antibody, V domains shown) VH: QVQLQQPGAELVMPGSSVKLSCKTSGYTFTKYWMHWVKRRPGQGLEWIGEINPSDTYTNYNQKFKGKSTLTVDKSSSTAYMQLSSLTSEDSAVYFCARVATMVARGFAYWGQGTLVTVSA VL: DIVMTQSHKFMSTSVGDRVSITCKASQDVSGAVVWYQEKPGQSPNLLIYLATYRYTGVPDRFTGSGSGTDFTLTIRSVQAEDMAVYYCQQYYSIPWTFGGGTKLEIK"
  outcome.measure: "kon"
  reported.result: "190000 M⁻¹ s⁻¹"
- binder: "Candidate 15 (VT008-AL6-18G1-18K21), mouse IgG (antibody, V domains shown, Recombinant mouse IgG2a or mIgG1 format, by assay) VH: QVQLQQPGAELVKPGTSVKLSCKASGYTFINYWIHWVKQRPGRGLEWIGRIDPNTVDAKYNEKFKSKATLTVDKPSSIAYMQLSSLTSEDSAVYYCSRGGYTMDYWGQGTSVTVSS VL: DVVMTQTPLSLPVSLGDQASISCRSSQSLVHSNGNTYLHWYLQKPGQSPTLLIYKVSNRFSGVPDRFSGSGSGTDFTLKISRVEAEDLGIYFCFQSTHVPWTFGGGTKLEIK"
  outcome.measure: "kon"
  reported.result: "565000 M⁻¹ s⁻¹"
- binder: "B6H12 (mouse IgG1, Abcam) (antibody, V domains shown) VH: EVQLVESGGDLVKPGGSLKLSCAASGFTFSGYGMSWVRQTPDKRLEWVATITSGGTYTYYPDSVKGRFTISRDNAKNTLYLQIDSLKSEDTAIYFCARSLAGNAMDYWGQGTSVTVSS VL: DIVMTQSPATLSVTPGDRVSLSCRASQTISDYLHWYQQKSHESPRLLIKFASQSISGIPSRFSGSGSGSDFTLSINSVEPEDVGVYYCQNGHGFPRTFGGGTKLEIK"
  outcome.measure: "kon"
  reported.result: "12900 M⁻¹ s⁻¹"
- binder: "Candidate 26 (VT008-AL6-10G3-10K1), mouse IgG (antibody, V domains shown, Recombinant mouse IgG2a or mIgG1 format, by assay) VH: QVQLQQPGPELVKPGASVKLSCKASGYTFTNYWIHWLNQRPGRGLEWIGRIDPNSGGTKYNEKFKSKAILTVDKSSSTTYMQLSSLTSEDSAVYYCARGGYTMDYWGQGTSVTVSS VL: DVVMPQTPLSLPVSLGDHASISCRSSQSLLHSNGNTYLHWYLQKPGQSPKLLIYKVSYRFSGVPDRISGSGSGTDFTLKISRVEAEDLGVYFCFQSTHVPWTFGGGTKLEIK"
  outcome.measure: "kon"
  reported.result: "200000 M⁻¹ s⁻¹"
